- TARGET_DESC: Neuronal acetylcholine receptor subunit beta-2 (Homo sapiens, UniProt P17787)
- Sequence (P17787 whole entry): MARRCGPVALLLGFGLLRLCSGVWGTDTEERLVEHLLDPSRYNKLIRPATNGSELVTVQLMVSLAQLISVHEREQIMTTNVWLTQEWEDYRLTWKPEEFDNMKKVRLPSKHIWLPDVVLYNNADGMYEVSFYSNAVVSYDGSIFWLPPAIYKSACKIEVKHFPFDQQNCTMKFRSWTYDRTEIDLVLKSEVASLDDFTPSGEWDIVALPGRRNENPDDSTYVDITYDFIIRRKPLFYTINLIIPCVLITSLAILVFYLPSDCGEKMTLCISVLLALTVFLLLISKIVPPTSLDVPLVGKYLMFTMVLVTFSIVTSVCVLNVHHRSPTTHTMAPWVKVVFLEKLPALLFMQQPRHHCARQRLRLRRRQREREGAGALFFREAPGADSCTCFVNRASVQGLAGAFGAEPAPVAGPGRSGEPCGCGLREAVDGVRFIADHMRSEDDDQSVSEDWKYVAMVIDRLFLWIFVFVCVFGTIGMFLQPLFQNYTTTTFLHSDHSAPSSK
- EXPERIMENT_SUMMARY: Binding affinity to beta2 nAChR
ENDPOINT: Ki (µM)
Numbers only here, please. The scale is µM.

Problem: Complete the entry with Ki for CC(COc1ccc(/C=C\c2ccccc2)cc1)[N+](C)(C)C (stereo unspecified)
Solution: 39
